# system: HDAC6 enzyme (Homo sapiens, UniProt Q9UBN7)
# Construct: transducing full length HDAC6 gene into Sf-9 insect cells; GST; purchased SignalChem; host or cells: Sf-9 insect cells
# Sequence (Q9UBN7 1-1215): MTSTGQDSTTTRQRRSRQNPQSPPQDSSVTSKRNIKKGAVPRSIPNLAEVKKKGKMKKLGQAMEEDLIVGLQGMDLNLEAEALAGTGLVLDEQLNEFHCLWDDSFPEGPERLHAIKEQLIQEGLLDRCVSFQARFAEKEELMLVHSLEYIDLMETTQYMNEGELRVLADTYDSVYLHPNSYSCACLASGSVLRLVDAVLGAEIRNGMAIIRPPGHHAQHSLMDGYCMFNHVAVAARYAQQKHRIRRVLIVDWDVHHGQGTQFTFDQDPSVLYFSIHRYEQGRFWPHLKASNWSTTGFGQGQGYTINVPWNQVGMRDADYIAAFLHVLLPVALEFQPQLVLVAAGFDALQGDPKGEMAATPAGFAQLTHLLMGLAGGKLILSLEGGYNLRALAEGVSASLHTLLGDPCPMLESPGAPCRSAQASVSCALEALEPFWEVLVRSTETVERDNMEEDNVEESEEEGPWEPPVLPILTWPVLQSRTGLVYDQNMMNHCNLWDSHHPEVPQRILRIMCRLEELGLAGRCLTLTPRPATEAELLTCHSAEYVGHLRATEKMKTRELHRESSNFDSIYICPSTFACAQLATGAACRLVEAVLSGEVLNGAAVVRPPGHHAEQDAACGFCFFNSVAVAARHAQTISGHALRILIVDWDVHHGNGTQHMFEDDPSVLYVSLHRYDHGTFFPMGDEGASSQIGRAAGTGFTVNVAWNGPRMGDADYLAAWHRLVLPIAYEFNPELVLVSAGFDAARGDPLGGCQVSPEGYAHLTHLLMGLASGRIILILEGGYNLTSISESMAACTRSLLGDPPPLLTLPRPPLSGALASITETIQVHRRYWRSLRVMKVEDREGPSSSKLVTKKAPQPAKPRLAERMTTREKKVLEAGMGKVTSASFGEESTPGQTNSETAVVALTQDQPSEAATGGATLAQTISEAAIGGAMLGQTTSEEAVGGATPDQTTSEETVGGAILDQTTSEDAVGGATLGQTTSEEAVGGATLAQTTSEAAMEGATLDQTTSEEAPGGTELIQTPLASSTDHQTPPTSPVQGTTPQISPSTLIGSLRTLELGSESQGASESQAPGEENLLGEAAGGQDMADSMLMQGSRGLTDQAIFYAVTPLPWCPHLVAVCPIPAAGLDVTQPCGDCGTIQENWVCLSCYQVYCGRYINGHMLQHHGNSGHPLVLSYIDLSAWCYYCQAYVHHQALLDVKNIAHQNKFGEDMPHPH
# measurement notes: HDAC6 enzyme inhibitory activity (HDAC-Glo I/II Assay kit)
# Assay type: biochemical
# details: 10 μM; wells without enzyme = 100% inhibition; read-out: HDAC6 inhibitory rate (%) (10 μM)
The entries below are paired with their reported inhibition at 10 µM.

# molecule, inhibition at 10 µM / %
measured = [
    ("Cn1cc(C2CCC(NC(=O)C(F)(F)C(F)(F)F)CC2)c(N2Cc3ccc(-c4nnc(C(F)F)o4)cc3C2=O)n1 (stereo not shown) [Example 532]", 99),
    ("O=C1c2cc(-c3nnc(C(F)F)o3)ccc2CN1c1ccc(F)cc1-n1cc(F)cn1 [Example 452]", 99),
    ("O=C1c2cc(-c3nnc(C(F)F)o3)ccc2CN1N1CCC(F)(F)CC1c1cccc(F)c1 (stereo not shown) [Example 560]", 100),
    ("O=C1c2cc(-c3nnc(C(F)F)o3)ccc2CN1[C@@H]1CCCC[C@H]1NC(=O)C1(C(F)F)CC1 [Example 23]", 99),
]

###

# system: HDAC6 enzyme (Homo sapiens, UniProt Q9UBN7)
# Construct: transducing full length HDAC6 gene into Sf-9 insect cells; GST; purchased SignalChem; host or cells: Sf-9 insect cells
# Sequence (Q9UBN7 1-1215): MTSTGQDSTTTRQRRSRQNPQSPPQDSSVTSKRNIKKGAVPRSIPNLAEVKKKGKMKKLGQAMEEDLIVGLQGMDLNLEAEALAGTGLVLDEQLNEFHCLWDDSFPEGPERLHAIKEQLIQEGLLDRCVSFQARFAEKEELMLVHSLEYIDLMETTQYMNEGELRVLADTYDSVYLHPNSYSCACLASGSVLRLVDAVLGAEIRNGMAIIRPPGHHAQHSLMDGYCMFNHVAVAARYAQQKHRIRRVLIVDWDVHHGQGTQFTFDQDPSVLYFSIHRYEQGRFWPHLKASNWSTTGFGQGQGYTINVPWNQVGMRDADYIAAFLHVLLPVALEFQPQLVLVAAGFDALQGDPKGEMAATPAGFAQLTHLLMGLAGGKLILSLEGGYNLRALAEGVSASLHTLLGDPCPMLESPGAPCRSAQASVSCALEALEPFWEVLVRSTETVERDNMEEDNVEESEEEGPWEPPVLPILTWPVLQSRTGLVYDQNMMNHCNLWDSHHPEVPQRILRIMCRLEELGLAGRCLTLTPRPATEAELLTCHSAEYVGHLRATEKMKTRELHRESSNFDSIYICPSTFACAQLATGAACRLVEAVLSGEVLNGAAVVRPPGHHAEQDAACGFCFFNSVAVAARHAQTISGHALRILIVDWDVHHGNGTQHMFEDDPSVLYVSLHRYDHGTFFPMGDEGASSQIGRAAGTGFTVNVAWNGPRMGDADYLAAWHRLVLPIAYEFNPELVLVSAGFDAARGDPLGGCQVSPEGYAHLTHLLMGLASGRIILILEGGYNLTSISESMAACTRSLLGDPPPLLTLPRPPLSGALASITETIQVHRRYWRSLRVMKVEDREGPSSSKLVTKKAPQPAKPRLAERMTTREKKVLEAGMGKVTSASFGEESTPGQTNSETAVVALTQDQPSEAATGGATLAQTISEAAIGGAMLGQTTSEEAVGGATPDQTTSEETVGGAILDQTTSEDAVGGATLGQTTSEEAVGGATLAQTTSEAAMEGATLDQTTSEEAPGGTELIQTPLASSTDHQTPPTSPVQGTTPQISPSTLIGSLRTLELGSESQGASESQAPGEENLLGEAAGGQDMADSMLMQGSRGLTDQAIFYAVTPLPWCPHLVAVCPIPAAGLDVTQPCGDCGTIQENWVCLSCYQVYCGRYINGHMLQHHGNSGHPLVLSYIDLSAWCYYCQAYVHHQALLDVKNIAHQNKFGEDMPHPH
# measurement notes: HDAC6 enzyme inhibitory activity (HDAC-Glo I/II Assay kit)
# Type: biochemical
# details: 10 μM; wells without enzyme = 100% inhibition; read-out: HDAC6 inhibitory rate (%) (10 μM)

# compound, inhibition at 10 µM, %
measured = [
    ("Cn1cc(C2CCN(C(=O)OC(C)(C)C)CC2)c(N2Cc3ccc(-c4nnc(C(F)F)o4)cc3C2=O)n1", 99),
    ("O=C1c2cc(-c3nnc(C(F)F)o3)cnc2CN1[C@@H]1CCCC[C@H]1NC(=O)C1(F)CC1", 100),
    ("N#Cc1cccc(-c2c(F)cccc2N2Cc3ccc(-c4nnc(C(F)F)o4)cc3C2=O)c1", 101),
    ("O=C1c2cc(-c3nnc(C(F)F)o3)cc(F)c2CN1[C@@H]1CCCC[C@H]1NS(=O)(=O)C1CC1", 101),
    ("O=C1c2cc(-c3nnc(C(F)F)o3)cc(F)c2CN1c1ccccc1Br", 92),
    ("O=C1c2cc(-c3nnc(C(F)F)o3)cc(F)c2CN1[C@@H]1CCOC[C@H]1NC(=O)C1(C(F)(F)F)CC1", 101),
    ("CS(=O)(=O)c1cccc(CN2Cc3ccc(-c4nnc(C(F)F)o4)cc3C2=O)c1", 100),
    ("CC(F)(F)C(=O)N[C@H]1[C@H](N2Cc3ncc(-c4nnc(C(F)F)o4)cc3C2=O)CCCC1(F)F", 100),
    ("C[C@@H](C1CC1)N1Cc2ccc(-c3nnc(C(F)F)o3)cc2C1=O", 98),
    ("O=C1c2cc(-c3nnc(C(F)F)o3)ccc2CN1c1ccccc1-c1ccccn1", 100),
    ("Cn1cc(-c2c(F)cccc2N2Cc3ccc(-c4nnc(C(F)F)o4)cc3C2=O)cn1", 98),
    ("O=C(N[C@@H]1CCCC[C@H]1N1Cc2ccc(-c3nnc(C(F)F)o3)cc2C1=O)[C@H]1CCOC1", 100),
    ("CC(C)OC(=O)N1CCCC[C@@H]1CN1Cc2ccc(-c3nnc(C(F)F)o3)cc2C1=O", 96),
    ("O=C1CCCN1CC(c1ccccc1)N1Cc2ncc(-c3nnc(C(F)F)o3)cc2C1=O (stereo not shown)", 99),
    ("N[C@@H]1CCCC[C@H]1N1Cc2ncc(-c3nnc(C(F)F)o3)cc2C1=O", 98),
    ("Cc1cccc(-c2ccccc2N2Cc3ccc(-c4nnc(C(F)F)o4)cc3C2=O)c1", 96),
]

###

# system: HDAC6 enzyme (Homo sapiens)
# Construct: transducing full length HDAC6 gene into Sf-9 insect cells; GST; purchased SignalChem; host or cells: Sf-9 insect cells
# Sequence (Q9UBN7 1-1215): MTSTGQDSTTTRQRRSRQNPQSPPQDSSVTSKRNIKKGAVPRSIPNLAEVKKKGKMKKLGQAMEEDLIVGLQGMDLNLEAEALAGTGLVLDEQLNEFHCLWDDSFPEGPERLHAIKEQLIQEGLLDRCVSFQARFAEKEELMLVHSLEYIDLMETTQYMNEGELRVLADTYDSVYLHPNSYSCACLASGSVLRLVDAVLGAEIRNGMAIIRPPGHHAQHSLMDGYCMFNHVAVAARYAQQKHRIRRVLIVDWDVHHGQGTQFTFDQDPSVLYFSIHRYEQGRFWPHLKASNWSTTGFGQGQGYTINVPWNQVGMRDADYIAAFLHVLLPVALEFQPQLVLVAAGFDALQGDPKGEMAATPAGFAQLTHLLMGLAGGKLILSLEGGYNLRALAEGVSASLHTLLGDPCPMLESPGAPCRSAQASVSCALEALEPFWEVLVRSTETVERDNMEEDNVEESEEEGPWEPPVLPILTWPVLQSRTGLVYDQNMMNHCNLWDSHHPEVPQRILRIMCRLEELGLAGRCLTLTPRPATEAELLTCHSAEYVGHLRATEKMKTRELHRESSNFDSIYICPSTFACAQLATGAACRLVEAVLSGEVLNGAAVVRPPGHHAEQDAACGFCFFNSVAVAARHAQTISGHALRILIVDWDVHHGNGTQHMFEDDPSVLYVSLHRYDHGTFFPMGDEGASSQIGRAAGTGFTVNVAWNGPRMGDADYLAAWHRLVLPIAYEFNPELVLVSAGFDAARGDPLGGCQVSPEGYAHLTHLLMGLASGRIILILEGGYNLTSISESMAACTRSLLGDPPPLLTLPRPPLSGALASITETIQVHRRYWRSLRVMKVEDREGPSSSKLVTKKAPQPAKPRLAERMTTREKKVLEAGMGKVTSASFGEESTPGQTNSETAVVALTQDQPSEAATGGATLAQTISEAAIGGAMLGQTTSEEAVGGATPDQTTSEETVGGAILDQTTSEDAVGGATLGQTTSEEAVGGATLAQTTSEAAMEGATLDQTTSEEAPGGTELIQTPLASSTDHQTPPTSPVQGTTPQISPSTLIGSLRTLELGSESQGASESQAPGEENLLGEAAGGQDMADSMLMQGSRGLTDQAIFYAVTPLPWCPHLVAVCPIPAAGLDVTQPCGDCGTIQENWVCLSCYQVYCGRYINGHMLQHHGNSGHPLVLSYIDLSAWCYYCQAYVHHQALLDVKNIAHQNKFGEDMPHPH
# measurement notes: HDAC6 enzyme inhibitory activity (HDAC-Glo I/II Assay kit)
# Type: biochemical
# details: 10 μM; wells without enzyme = 100% inhibition; read-out: HDAC6 inhibitory rate (%) (10 μM)

# compound, system, inhibition at 10 µM, %
rows = [
    ("Cn1nc(C(F)(F)F)cc1-c1ccccc1N1Cc2ccc(-c3nnc(C(F)F)o3)cc2C1=O", "HDAC6 enzyme (Homo sapiens)", 99),
    ("O=C1c2cc(-c3nnc(C(F)F)o3)cnc2CN1[C@@H]1CCCC[C@H]1Oc1cncc(F)c1 (racemic)", "HDAC6 enzyme (Homo sapiens)", 100),
    ("CC(F)(F)C(=O)N[C@@H]1CC(F)(F)CC[C@H]1N1Cc2ncc(-c3nnc(C(F)F)o3)cc2C1=O", "HDAC6 enzyme (Homo sapiens)", 100),
    ("N[C@@H]1CCC(F)(F)C[C@H]1N1Cc2ncc(-c3nnc(C(F)F)o3)cc2C1=O", "HDAC6 enzyme (Homo sapiens)", 93),
]
